- measurement-target: T1, CD3 on primary human pan T cells (human, UniProt P07766 23-207)
- T1 construct: on cells it stands in the TCR/CD3 complex; also called Pan T-cells (CD3-positive); endogenous CD3
- T1 sequence (P07766 23-207 limits assumed): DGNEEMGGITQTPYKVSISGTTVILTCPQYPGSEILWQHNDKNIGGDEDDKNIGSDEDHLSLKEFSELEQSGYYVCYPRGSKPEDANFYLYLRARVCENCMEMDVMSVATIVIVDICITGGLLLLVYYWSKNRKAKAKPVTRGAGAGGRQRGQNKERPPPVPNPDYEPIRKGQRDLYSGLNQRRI
- experiment: flow cytometry, pan T-cells
# % Binding retained on T-cells, 65° C. per record follows
Number in fraction, nothing else.

binder	readout-name	endpoint-unit	assay-result
CD3B2042 (scFv) scFv: QVQLVQSGAEVKKPGSSVKVSCKASGYTFTRSTMHWVRQAPGQGLEWIGYINPSSAYTNYNQKFQGRVTLTADKSTSTAYMELSSLRSEDTAVYYCASPQVHYDYNGFPYWGQGTLVTVSSGGSEGKSSGSGSESKSTGGSEIVLTQSPATLSASPGERVTLSCSASSSVSYMNWYQQKPGTSPRRLIYDSSKLASGVPARFSGSGSGRDYTLTISSLEPEDFAVYYCQQWSRNPPTFGGGTKVEIK	% Binding retained on T-cells, 65° C.	fraction	0.0842
CD3B2079 (scFv) scFv: QVQLVQSGAEVKKPGSSVKVSCKASGYTFTRSTMHWVRQAPGQGLEWIGYINPSSAYTNYAQKFQGRVTLTADKSTSTAYMELSSLRSEDTAVYYCASPQVHYDYNGFPYWGQGTLVTVSSGGSEGKSSGSGSESKSTGGSEIVLTQSPATLSASPGERVTLSCSASSSVSYMNWYQQKPGTAPRRLIYDSSKLASGVPARFSGSGSGRDYTLTISSLEPEDFAVYYCQQWSRNPPTFGGGTKVEIK	% Binding retained on T-cells, 65° C.	fraction	0.116
CD3B2086 (scFv) scFv: QVQLVQSGAEVKKPGSSVKVSCKASGYTFTRSTMHWVRQAPGQGLEWMGYINPSSAYTNYAQKFQGRVTLTADKSTSTAYMELSSLRSEDTAVYYCASPQVHYDYNGFPYWGQGTLVTVSSGGSEGKSSGSGSESKSTGGSEIVLTQSPATLSASPGERVTLSCSASSSVSYMNWYQQKPGTSPRRLIYDSSKLASGVPARFSGSGSGRDYTLTISSLEPEDFAVYYCQQWSRNPPTFGGGTKVEIK	% Binding retained on T-cells, 65° C.	fraction	0.0404
CD3B2071 (scFv) scFv: QVQLVQSGAEVKKPGSSVKVSCKASGYTFTRSTMHWVRQAPGQGLEWMGYINPSSAYTNYNQKFQGRVTLTADKSTSTAYMELSSLRSEDTAVYYCASPQVHYDYNGFPYWGQGTLVTVSSGGSEGKSSGSGSESKSTGGSEIVLTQSPATLSASPGERVTLSCSASSSVSYMNWYQQKPGTAPRRLIYDSSKLASGVPARFSGSGSGRDYTLTISSLEPEDFAVYYCQQWSRNPPTFGGGTKVEIK	% Binding retained on T-cells, 65° C.	fraction	0.12
CD3B2073 (scFv) scFv: QVQLVQSGAEVKKPGSSVKVSCKASGYTFTRSTMHWVRQAPGQGLEWMGYINPSSAYTNYNQKFQGRVTLTADKSTSTAYMELSSLRSEDTAVYYCASPQVHYDYNGFPYWGQGTLVTVSSGGSEGKSSGSGSESKSTGGSEIVLTQSPATLSASPGERVTLSCSASSSVSYMNWYQQKPGQAPRRWIYDSSKLASGVPARFSGSGSGRDYTLTISSLEPEDFAVYYCQQWSRNPPTFGGGTKVEIK	% Binding retained on T-cells, 65° C.	fraction	0.348

Give its % Binding retained on T-cells, 65° C. value. Item: CD3B2063 (scFv) scFv: QVQLVQSGAEVKKPGSSVKVSCKASGYTFTRSTMHWVKQAPGQGLEWIGYINPSSAYTNYAQKFQGRVTLTADKSTSTAYMELSSLRSEDTAVYYCASPQVHYDYNGFPYWGQGTLVTVSSGGSEGKSSGSGSESKSTGGSEIVLTQSPATLSASPGERVTLSCSASSSVSYMNWYQQKPGTAPRRLIYDSSKLASGVPARFSGSGSGRDYTLTISSLEPEDFAVYYCQQWSRNPPTFGGGTKVEIK
0.185
